tested on: NCI-H1650; assay: relative viability (nuclei count vs DMSO), 5 days (fraction); higher = more cells survive; conditions: first compound 0.1 µM
Endpoint Label: relative viability

Check out these entries, answers already filled in.
Molecule | Experimental Value
CCN(CC)CCCCNc1ncc2cc(-c3cc(OC)cc(OC)c3)c(NC(=O)NC(C)(C)C)nc2n1 + Nc1ncn([C@H]2C[C@H](O)[C@@H](CO)O2)c(=O)n1 [Decitabine] (partner 2 µM) | 0.397
CCN(CC)CCCCNc1ncc2cc(-c3cc(OC)cc(OC)c3)c(NC(=O)NC(C)(C)C)nc2n1 + COc1cccc2cc(-c3nc([C@H]4CC[C@H](C(=O)O)CC4)n4ncnc(N)c34)[nH]c12 [OSI-027] (partner 0.5 µM) | 0.649
O=c1cc(N2CCOCC2)oc2c(-c3cccc4c3sc3ccccc34)cccc12 + Cc1nc(Nc2ncc(C(=O)Nc3c(C)cccc3Cl)s2)cc(N2CCN(CCO)CC2)n1 [Dasatinib] (partner 0.075 µM) | 0.315
O=c1cc(N2CCOCC2)oc2c(-c3cccc4c3sc3ccccc34)cccc12 + Nc1nc2[nH]cc(CCc3ccc(C(=O)N[C@@H](CCC(=O)O)C(=O)O)cc3)c2c(=O)[nH]1 [Pemetrexed] (partner 0.2 µM) | 0.35
O=c1cc(N2CCOCC2)oc2c(-c3cccc4c3sc3ccccc34)cccc12 + COc1cccc2cc(-c3nc([C@H]4CC[C@H](C(=O)O)CC4)n4ncnc(N)c34)[nH]c12 [OSI-027] (partner 0.5 µM) | 0.535

Query: relative viability; subject: CCN(CC)CCCCNc1ncc2cc(-c3cc(OC)cc(OC)c3)c(NC(=O)NC(C)(C)C)nc2n1 + O=C(CCCCCCC(=O)Nc1ccccc1)NO [Vorinostat] (partner 1 µM)
0.531
